background-corrected fluorescence: recorded values
- protocol.notes: background-corrected fluorescence of 3'-dye-labeled ssDNA relative to brightest sequence (3'-GCGCG) (fraction); higher = brighter dye fluorescence (less quenching)
- run.parameters: dye: Cy5 (3' terminal)
experimental.endpoint: background-corrected fluorescence

- TTTTTTCATGCTGATGCTGCTTTTTTTTTTTTTTTGACAA [AACAG]: 0.415
- TTTTTTCATCATCAGCAGCATTTTTTTTTTTTTTTGGGTT: 0.489
- TTTTTGCATGCTGCTCAGCATTTTTTTTTTTTTTTTAAGT [TGAAT]: 0.493
- TTTTTGCATGCGCATCATGATTTTTTTTTTTTTTTTATGC [CGTAT]: 0.377
- TTTTTTGCTGCTGCTGATGATTTTTTTTTTTTTTTAAACC [CCAAA]: 0.29
- TTTTTTCAGCATGATGATCATTTTTTTTTTTTTTTGTCCG [GCCTG]: 0.429
- TTTTTTCATGCTCATGAGCATTTTTTTTTTTTTTTGAGCT [TCGAG]: 0.41
- TTTTTTGCGCATCATCATGATTTTTTTTTTTTTTTATGGC [CGGTA]: 0.445
- TTTTTTGCGCAGCATCAGCATTTTTTTTTTTTTTTATTGT [TGTTA]: 0.486
- TTTTTTGAGCAGCATCATCATTTTTTTTTTTTTTTCTTGG [GGTTC]: 0.47
- TTTTTTGATGCTGATCATGATTTTTTTTTTTTTTTCACGC [CGCAC]: 0.438
- TTTTTTGCTCATGCTGATGCTTTTTTTTTTTTTTTAGACA [ACAGA]: 0.383
- TTTTTTGCGCATGATGCGCATTTTTTTTTTTTTTTATCAT [TACTA]: 0.408
- TTTTTTGATGCTCATGCTGCTTTTTTTTTTTTTTTCAGAA [AAGAC]: 0.471
- TTTTTGCATCATGATGCTCATTTTTTTTTTTTTTTTGCAG [GACGT]: 0.425
- TTTTTTCATGCTCATGCGCATTTTTTTTTTTTTTTGAGAT [TAGAG]: 0.439
- TTTTTTCATGATGCTGATGATTTTTTTTTTTTTTTGCACC [CCACG]: 0.28
- TTTTTTGATCATCATGCGCATTTTTTTTTTTTTTTCGGAT [TAGGC]: 0.472
- TTTTTTGATCATCATGAGCATTTTTTTTTTTTTTTCGGCT: 0.431
- TTTTTGCATGCTGATGATGCTTTTTTTTTTTTTTTTACCA [ACCAT]: 0.364
- TTTTTTGCTCATCATCATCATTTTTTTTTTTTTTTAGGGG [GGGGA]: 0.591
- TTTTTGCATCAGCAGCAGCATTTTTTTTTTTTTTTTGTTT: 0.396
- TTTTTGCATGCTGAGCATGCTTTTTTTTTTTTTTTTACTA [ATCAT]: 0.388
- TTTTTTGATCATGCGCAGCATTTTTTTTTTTTTTTCGATT [TTAGC]: 0.404
- TTTTTTGAGCATCATGCGCATTTTTTTTTTTTTTTCTGAT [TAGTC]: 0.455
- TTTTTTGCTCATGCTGCTGATTTTTTTTTTTTTTTAGAAC [CAAGA]: 0.358
- TTTTTTCATGCGCATGATGCTTTTTTTTTTTTTTTGATCA [ACTAG]: 0.43
- TTTTTTGATGCTGCTGCTCATTTTTTTTTTTTTTTCAAAG [GAAAC]: 0.396
- TTTTTTGCTGCTGCGCAGCATTTTTTTTTTTTTTTAAATT: 0.401
- TTTTTTGCTGCTGATCAGCATTTTTTTTTTTTTTTAACGT [TGCAA]: 0.45
- TTTTTTGAGCATGCTGAGCATTTTTTTTTTTTTTTCTACT [TCATC]: 0.33
- TTTTTTCATCAGCATGATGCTTTTTTTTTTTTTTTGGTCA [ACTGG]: 0.414
- TTTTTGCAGCATCAGCATCATTTTTTTTTTTTTTTTTGTG [GTGTT]: 0.397
- TTTTTGCATGCTGCGCAGCATTTTTTTTTTTTTTTTAATT: 0.377
- TTTTTTCATGATGCTGCTGATTTTTTTTTTTTTTTGCAAC [CAACG]: 0.319

Where these numbers come from: the supplement of paper PMC9428881
